Entry source: patent US7118895B2

# Test system: Crude diglycosidase
# PROCEDURE DETAILS: Examination of pH in the conversion into isoflavone aglycons by diglycosidase using soybean materials
# Format: biochemical, Penicillium multicolor IAM7153
# ASSAY CONTEXT: pH6.5, heat treatment of enzyme yes, reaction time 6 h, 55° C.
MEASURED METRIC: Decomposition efficiency of daidzin family in roasted soy flour

Worked examples follow.
| QUERY SMILES | EXPERIMENTAL RESULT |
| --- | --- |
| O=c1c(-c2ccc(O)cc2)coc2cc(O[C@@H]3O[C@H](CO)[C@@H](O)[C@H](O)[C@H]3O)ccc12 | 51.9 |
| CC(=O)OC[C@H]1O[C@@H](Oc2ccc3c(=O)c(-c4ccc(O)cc4)coc3c2)[C@H](O)[C@@H](O)[C@@H]1O | 43.4 |

Consider the additional molecule presented here.
Query `O=c1c(-c2ccc(O)cc2)coc2cc(O)ccc12` on Crude diglycosidase; Decomposition efficiency of daidzin family in roasted soy flour returned: 4.7

* * *

# Test system: Crude diglycosidase
# PROCEDURE DETAILS: Examination of pH in the conversion into isoflavone aglycons by diglycosidase using soybean materials
# Assay type: biochemical, Penicillium multicolor IAM7153
# Design: concentration or dose not given beside the values
# ASSAY CONTEXT: pH5.4; heat treatment of enzyme: no; reaction time 0 h
MEASURED METRIC: Decomposition efficiency of daidzin family in defatted soybean (%)
Your answer should be a plain number; it is taken to be in %.

Solved cases below.
| MOLECULE | EXPERIMENTAL RESULT |
| --- | --- |
| O=c1c(-c2ccc(O)cc2)coc2cc(O[C@@H]3O[C@H](CO)[C@@H](O)[C@H](O)[C@H]3O)ccc12 [daidzin] | 43.5 |
| O=c1c(-c2ccc(O)cc2)coc2cc(O)ccc12 [daidzein] | 15.7 |

Proceed to the following item.
Assay Crude diglycosidase, sample O=C(O)CC(=O)OC[C@H]1O[C@@H](Oc2ccc3c(=O)c(-c4ccc(O)cc4)coc3c2)[C@H](O)[C@@H](O)[C@@H]1O [malonyldaidzin, 6″-O-malonyldaidzin] , Decomposition efficiency of daidzin family in defatted soybean read: 40.7

* * *

# System: Crude diglycosidase
# PROCEDURE DETAILS: Examination of pH in the conversion into isoflavone aglycons by diglycosidase using soybean materials
# Assay type: biochemical, Penicillium multicolor IAM7153
# ASSAY CONTEXT: pH3, heat treatment of enzyme no, reaction time 0 h, 55° C.
MEASURED METRIC: Decomposition efficiency of glycitin family in roasted soy flour
Just the number, please.

Recorded Decomposition efficiency of glycitin family in roasted soy flour (compound COc1cc2c(=O)c(-c3ccc(O)cc3)coc2cc1O [glycitein] ): 7.9

Just so you know, measured Decomposition efficiency of glycitin family in roasted soy flour for COc1cc2c(=O)c(-c3ccc(O)cc3)coc2cc1O[C@@H]1O[C@H](COC(C)=O)[C@@H](O)[C@H](O)[C@H]1O [acetylglycitin, 6″-O-acetylglycitin] came out at 35.3

Reported Decomposition efficiency of glycitin family in roasted soy flour ( COc1cc2c(=O)c(-c3ccc(O)cc3)coc2cc1O[C@@H]1O[C@H](CO)[C@@H](O)[C@H](O)[C@H]1O [glycitin] ) = 56.8

* * *

# Test system: Crude diglycosidase
# PROCEDURE DETAILS: Examination of substrate concentration in the conversion into isoflavone aglycons by diglycosidase using soybean materials;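 also: percent of the isoflavone family total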
# Type: biochemical, Penicillium multicolor IAM7153
# ASSAY CONTEXT: soymilk, substrate concentration 2%, heat treatment of enzyme no, reaction time 3 h
# Method: Into 20 mM acetate buffer of pH 4.0 was suspended 0.1 g, 0.25 g, 0.5 g, 1.0 g, or 1.5 g of each of various soybean materials (roasted soy flour (manufactured by Fuji Shokuryo K.K.), soymilk (manufactured by Gitoh Shokuhin K.K.), defatted soybean (manufactured by Fuji Seiyu K.K.), concentrated soybean protein (manufactured by Fuji Seiyu K.K.)). The pH of the suspension was measured and the liquid volume was adjusted to 4.5 mL while the pH was adjusted to 4.0 with 1N hydrochloric acid. […]
MEASURED METRIC: Decomposition efficiency: ratio of each glycoside/aglycon within its isoflavone family

| QUERY SMILES | EXPERIMENTAL RESULT |
| --- | --- |
| COc1cc2c(=O)c(-c3ccc(O)cc3)coc2cc1O[C@@H]1O[C@H](COC(=O)CC(=O)O)[C@@H](O)[C@H](O)[C@H]1O | not detected |
| O=C(O)CC(=O)OC[C@H]1O[C@@H](Oc2cc(O)c3c(=O)c(-c4ccc(O)cc4)coc3c2)[C@H](O)[C@@H](O)[C@@H]1O | 3.5% |
| O=c1c(-c2ccc(O)cc2)coc2cc(O[C@@H]3O[C@H](CO)[C@@H](O)[C@H](O)[C@H]3O)ccc12 | not detected |

* * *

# Test system: Crude diglycosidase
# PROCEDURE DETAILS: Examination of pH in the conversion into isoflavone aglycons by diglycosidase using soybean materials
# Assay type: biochemical, Penicillium multicolor IAM7153
# ASSAY CONTEXT: pH4.8; heat treatment of enzyme: no; reaction time 0 h
MEASURED METRIC: Decomposition efficiency of daidzin family in soymilk (%)
Please give a number only; it is taken to be in %.

// `O=c1c(-c2ccc(O)cc2)coc2cc(O[C@@H]3O[C@H](CO)[C@@H](O)[C@H](O)[C@H]3O)ccc12` : Decomposition efficiency of daidzin family in soymilk value = 34.9

The compound identified as `O=c1c(-c2ccc(O)cc2)coc2cc(O)ccc12` registered its Decomposition efficiency of daidzin family in soymilk at 9.0

Value of Decomposition efficiency of daidzin family in soymilk reported for the compound `O=C(O)CC(=O)OC[C@H]1O[C@@H](Oc2ccc3c(=O)c(-c4ccc(O)cc4)coc3c2)[C@H](O)[C@@H](O)[C@@H]1O` is 56.2

* * *

# Test system: Crude diglycosidase
# PROCEDURE DETAILS: Examination of pH in the conversion into isoflavone aglycons by diglycosidase using soybean materials
# Format: biochemical, Penicillium multicolor IAM7153
# ASSAY CONTEXT: pH3.7; heat treatment of enzyme: no; reaction time 3 h
Recorded Decomposition efficiency of daidzin family in concentrated soybean protein, one value per entry.
Write down the numeric answer in % and omit the unit.

| QUERY SMILES | ASSAYED TARGET | EXPERIMENTAL RESULT |
| --- | --- | --- |
| CC(=O)OC[C@H]1O[C@@H](Oc2ccc3c(=O)c(-c4ccc(O)cc4)coc3c2)[C@H](O)[C@@H](O)[C@@H]1O | Crude diglycosidase | 33.0 |

Entry `O=c1c(-c2ccc(O)cc2)coc2cc(O)ccc12` , Decomposition efficiency of daidzin family in concentrated soybean protein reported as 67.0

* * *

// Decomposition efficiency of glycitin family in soymilk lookup, one value per entry
# System: Crude diglycosidase
# PROCEDURE DETAILS: Examination of pH in the conversion into isoflavone aglycons by diglycosidase using soybean materials
# Assay type: biochemical, Penicillium multicolor IAM7153
# ASSAY CONTEXT: pH11.6, heat treatment of enzyme no, reaction time 6 h, 55° C.
Field format: numeric only.

| QUERY SMILES | ASSAYED TARGET | EXPERIMENTAL RESULT |
| --- | --- | --- |
| COc1cc2c(=O)c(-c3ccc(O)cc3)coc2cc1O | Crude diglycosidase | 56.0 |

Next compound, please.
Form: compound = `COc1cc2c(=O)c(-c3ccc(O)cc3)coc2cc1O[C@@H]1O[C@H](COC(=O)CC(=O)O)[C@@H](O)[C@H](O)[C@H]1O` ; Decomposition efficiency of glycitin family in soymilk = 44.0

* * *

# Test system: Crude diglycosidase
# PROCEDURE DETAILS: Examination of temperature in the conversion into isoflavone aglycons by diglycosidase using soybean materials
# Type: biochemical, Penicillium multicolor IAM7153
# Set-up: concentration or dose not given beside the values
# ASSAY CONTEXT: 55° C., heat treatment of enzyme no, reaction time 1 h
MEASURED METRIC: Decomposition efficiency of glycitin family in defatted soybean (%)
Supply the numeric figure in %, leaving out any unit text.

| QUERY SMILES | UNITS OF MEASURE | EXPERIMENTAL RESULT |
| --- | --- | --- |
| COc1cc2c(=O)c(-c3ccc(O)cc3)coc2cc1O | % | 55.2 |

Kindly note the recorded Decomposition efficiency of glycitin family in defatted soybean for `COc1cc2c(=O)c(-c3ccc(O)cc3)coc2cc1O[C@@H]1O[C@H](COC(=O)CC(=O)O)[C@@H](O)[C@H](O)[C@H]1O` , which is 44.8

* * *

# Tested on: Crude diglycosidase
# PROCEDURE DETAILS: Examination of pH in the conversion into isoflavone aglycons by diglycosidase using soybean materials
# Format: biochemical, Penicillium multicolor IAM7153
# ASSAY CONTEXT: pH5.1; heat treatment of enzyme: no; reaction time 3 h
Quick list: Decomposition efficiency of daidzin family in concentrated soybean protein per entry.
Express the result in % but write the number alone.

| QUERY SMILES | ASSAYED TARGET | EXPERIMENTAL RESULT |
| --- | --- | --- |
| O=c1c(-c2ccc(O)cc2)coc2cc(O)ccc12 | Crude diglycosidase | 63.0 |

`CC(=O)OC[C@H]1O[C@@H](Oc2ccc3c(=O)c(-c4ccc(O)cc4)coc3c2)[C@H](O)[C@@H](O)[C@@H]1O` yielded Decomposition efficiency of daidzin family in concentrated soybean protein of 37.0
